biological target: HLA-DR (DRA1*01:01 / DRB1*04:01), soluble knob-into-hole Fc heterodimer (human); test: ELISA
readout: Ki (nM)
Quick reminder: number only, in nM, skip the unit.

-- ask Ki lookup needed for KPVSKMRMATPLLMQALPM [human CLIP peptide, unlabelled competitor] , thanks.
-- reply 6.46
